Experimental Protocol: nonselective transcriptional activators, VP16 reporter – cell-based, pG5luc, luminescence, high throughput, counter-screen for SMARCA2 (BRM) activator project (AID 686939)
Measurement Parameters: HEK293 GAL4-VP16 pG5luc reporter, luciferase luminescence; at 9.1 µM; scaled: DMSO wells 0%, SAHA wells 100%
Out of some 3,500 compounds screened, about 1,400 (40%) were called active.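 How the source made its calls: active means activation above the solvent-only control well mean plus 3 SD, averaged across control plates (cut at about 5.2% in these data); inactive means the rest.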 So high a share suggests a set chosen from earlier hits. Only a sample is shown.
Outcome codes: yes (1) (active), no (0) (inactive)

| Mol | Label Class |
| --- | --- |
| O=C(CCCc1ccccc1)NCc1ccccc1 | no (0) |
| CC(C)(C)c1ccc(NC(=O)NCc2ccco2)cc1 | no (0) |
| COc1ccc(-c2cc3ncccc3cn2)cc1 | yes (1) |
| COc1ccc(OCCCC(=O)NCCc2ccccc2)cc1 | no (0) |
| Cc1ccc(NC(=O)C(=O)NCc2ccco2)c(C)c1 | yes (1) |
| COc1ccc(Cn2c(C)c(C)c(C#N)c2NC(=O)Nc2ccc(F)cc2)cc1 | no (0) |

---

Experimental Protocol: nonselective transcriptional activators, VP16 reporter – cell-based, pG5luc, luminescence, high throughput, counter-screen for SMARCA2 (BRM) activator project (AID 686939)
Measurement Parameters: HEK293 GAL4-VP16 pG5luc reporter, luciferase luminescence; at 9.1 µM; scaled: DMSO wells 0%, SAHA wells 100%
The whole screen tested about 3,500 compounds, of which about 1,400 (40%) were called active.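 How the source made its calls: active means activation above the solvent-only control well mean plus 3 SD, averaged across control plates (cut at about 5.2% in these data); inactive means the rest.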 The set was probably picked from earlier hits. Only a sample is shown.
Possible outcomes: active, inactive

| Molecule | Label Class |
| --- | --- |
| CCCC(=O)N1c2ccc(-c3csc(N)n3)cc2CC1C (stereo not given) | active |
| CCC1CCC/C1=N\NC(=O)c1ccc(Cl)cc1 (stereo not given) | inactive |
| CC1CCCCN1C(=S)NCc1ccccc1 (stereo not given) | inactive |
| COCC1CCN(C(=O)C2CCC(=O)N(Cc3cccc(C(F)(F)F)c3)C2)CC1 (stereo not given) | inactive |
| Cc1ccc(O)c(CNc2nc3ccccc3n2C)c1 | inactive |
| Cc1ccc(Nc2nc(Cl)c(C=O)s2)cc1 | inactive |
| Cc1ccnc(NC(=O)C2CCN(S(=O)(=O)c3c(C)c(C)cc(C)c3C)CC2)c1 | inactive |
| COc1ccc(/C(N)=N/OC(=O)Oc2ccccc2)cc1 | inactive |
| NS(=O)(=O)c1ccccc1NC(=O)c1c(O)c2ccccc2[nH]c1=O | active |
| Cc1cccc(-n2c(O)c(C=Nc3ccccc3N)c(=O)[nH]c2=O)c1 | active |
| COC(=O)Cc1nnn2c1[C@H](C)[C@H](c1ccccc1[N+](=O)[O-])OCC2 | inactive |
| O=C(O)c1cccc(N=NN2CCCCCC2)c1 | active |
| COC(=O)c1ccc(/C=C2/C(=O)Oc3ccccc32)cc1 | inactive |
| O=C(Cn1ncc(N2CCCC2)c(Br)c1=O)c1ccc(Cl)cc1 | active |
| Cc1cc(-c2n[nH]c(=S)n2/N=C/C(Br)=C/c2ccccc2)n[nH]1 | inactive |
| O=C1Cc2cc(S(=O)(=O)Nc3cccc(F)c3)ccc2N1 | inactive |
| CC(C)c1ccc(NC(=S)NC2CC3C=CC2C3)cc1 (stereo not given) | active |
| CCCCc1ccc(NC(=S)N2CCCC(CO)C2)cc1 (stereo not given) | active |
| CC(=O)c1sc(NC(=O)c2ccc(C)cc2)nc1C | active |
| CCC(C)N(C)C1CCN(C(=S)Nc2ccc(OC)cc2)CC1 (stereo not given) | inactive |
| COC(=O)c1ccc(NCc2cc(O)ccc2O)cc1 | active |
| CCc1c(C)c2ccc(OC3CCCCC3=O)cc2oc1=O (stereo not given) | inactive |
| CC(=O)c1sc(N/N=C\c2ccc(C)cc2)nc1C | active |
| Oc1cccc2ccc(/C=C/c3ccc(Br)s3)nc12 | active |
| COc1ccc(NC(=O)c2sccc2SCC#N)cc1 | inactive |

---

Experimental Protocol: nonselective transcriptional activators, VP16 reporter – cell-based, pG5luc, luminescence, high throughput, counter-screen for SMARCA2 (BRM) activator project (AID 686939)
Measurement Parameters: HEK293 GAL4-VP16 pG5luc reporter, luciferase luminescence; at 9.1 µM; scaled: DMSO wells 0%, SAHA wells 100%
Out of some 3,500 compounds screened, about 1,400 (40%) were called active.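 The calls were made as follows: active = activation above the solvent-only control well mean plus 3 SD, averaged across control plates (cut at about 5.2% in these data); inactive = the rest.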 The set was probably picked from earlier hits. The list is a sample of the results.
Labels: Y (active), N (inactive)

| Compound | Label Class |
| --- | --- |
| COC(=O)c1sc(-c2ccc(C(C)(C)C)cc2)cc1NC(=O)/C=C/C(=O)O | N |
| Cc1ccc(S(=O)(=O)NC(C)C(=O)NCc2ccc(Cl)cc2)cc1 (stereo not given) | N |
| Cc1ccc(S(=O)(=O)c2c[nH]c3ccc(Cl)cc3c2=O)cc1 | N |
| COc1cc(CN2CCC(C(N)=O)CC2)ccc1OCc1ccccc1 | Y |
| COC(=O)C1C(=O)c2c([nH]c(C(=O)OCCSC)c2C)CC1C (stereo not given) | Y |
| COc1c(O)cc2oc(-c3ccc(O)c(O)c3)cc(=O)c2c1O | Y |
| COc1ccc(/C=C/C(=O)Nc2ccc(C34CC5CC(CC(O)(C5)C3)C4)cc2)cc1OC | Y |
| CC1CCCCC1NC(=O)CN1CCC(O)(c2ccc3c(c2)OCO3)CC1 (stereo not given) | N |
| CN(C)S(=O)(=O)c1ccc2oc(SCC(=O)Nc3ccccc3F)nc2c1 | Y |
| COc1ccc(C(CNC(=O)c2ccc(S(=O)(=O)Nc3ccccc3F)cc2)N(C)C)cc1 (stereo not given) | N |
| CCOC(=O)c1c(C)[nH]c(C2=NNC(=NC(C)COC)SC2)c1C (stereo not given) | Y |
| Cc1cccc(CSc2ccc(-c3cccs3)nn2)c1 | N |
| CN(C)CCNC(=O)c1ccc(Cl)c2cc3ccccc3nc12 | Y |
| O=C(NCc1ccccn1)c1cnc2sccn2c1=O | N |
| COc1ccc(N=C(C)c2sc3ccccc3c2O)cc1 | Y |
| COc1ccc(CC2c3cc(OC)c(OC)cc3CC[N+]2(C)CCC(=O)OCCCCCOC(=O)CC[N+]2(C)CCc3cc(OC)c(OC)cc3C2Cc2ccc(OC)c(OC)c2)cc1OC (stereo not given) | N |
| Cc1cc(C)n2nc(CNS(=O)(=O)c3c(F)c(F)c(F)c(F)c3F)nc2n1 | N |
| O=C(Nc1cc(=O)[nH]c2ncnn12)c1ccccc1Cl | N |
| CCNC(=S)N1CCN(c2ncccn2)CC1 | N |
| O=C(O)c1ccc(COc2c(F)c(F)cc(F)c2F)o1 | N |
| CCN(CC)C(=O)c1sc2nc(-c3ccccc3)ccc2c1N | Y |
| O=C(OCC(=O)c1cccs1)C1=COCCO1 | Y |
| O=C(C1CCC1)N1CCN(S(=O)(=O)c2ccc([N+](=O)[O-])cc2)CC1 | N |
| COCn1c(COc2ccccc2)nc2ccccc21 | N |
| C/C(CC(=O)NC(C)(C)C)=N\NC(=O)c1ccco1 | N |
| Cc1ccc(-c2nc3ccc(Cl)cn3c2Cc2ccccc2)cc1 | Y |
| Cc1cc(C)nc(Nc2n[nH]c(-c3ccccc3N)n2)n1 | Y |
| COc1ccccc1OCC(=O)O/N=C(\N)c1ccccn1 | N |
| CCOC(=O)Nc1ccc(NC(=O)OCC)cc1 | N |
| COc1cc(/C=N/NC(=O)c2ccccc2)ccc1OS(=O)(=O)c1ccccc1 | N |
| O=C(Nc1ccc2nccnc2c1)c1ccco1 | Y |
| FC(F)(F)c1cccc(-c2nc3ccccc3n2C(c2ccccc2)c2nc3ccccc3[nH]2)c1 (stereo not given) | N |
| CN(C)c1nc(=Nc2cccc(Cl)c2)ss1 | N |
| COCC(C)n1c(SCc2ccc(C(=O)OC)o2)nc2ccccc2c1=O (stereo not given) | N |
| Cc1cc2oc3ccc(NCCC4CCCN4C)cc3c(=O)c2cc1C (stereo not given) | Y |
| Cc1cc(C(=O)NNC(=S)Nc2ccccc2C)cs1 | Y |
| O=C(NCC1CCCO1)c1cc2c(s1)CCCC2 (stereo not given) | Y |
| Cn1sc(=O)c2cc(S(=O)(=O)NC3CC3)ccc21 | N |
| O=[N+]([O-])c1ccc2c(c1)Nc1nc3ccccc3nc1N2 | Y |
| COc1ccc(S(=O)(=O)NC(C)C(=O)N2CCCCCC2)cc1 (stereo not given) | N |
| Cc1ccc(-n2c(SCC(=O)N3CCC(C(=O)O)CC3)nc3ccccc3c2=O)cc1C | N |
| Cc1cc(=O)[nH]c(N/N=C/c2ccc3c(c2)OCCO3)n1 | N |
| CCOc1cccc2c1OC1(CCCCC1)N1N=C(c3cccnc3)CC21 (stereo not given) | N |
| Cc1ccc(-c2nc3ccc(Br)cn3c2Cc2ccccc2C(F)(F)F)cc1 | Y |
| CCCCCCOC(=O)NCC(O)c1ccccc1 (stereo not given) | Y |
